The reported measurements were obtained from PubChem BioAssay AID588519.

Biological target: Genome polyprotein (Poliovirus type 1 (strain Mahoney)) (UniProt P03300)
Sequence (P03300 1749-2209 limits assumed): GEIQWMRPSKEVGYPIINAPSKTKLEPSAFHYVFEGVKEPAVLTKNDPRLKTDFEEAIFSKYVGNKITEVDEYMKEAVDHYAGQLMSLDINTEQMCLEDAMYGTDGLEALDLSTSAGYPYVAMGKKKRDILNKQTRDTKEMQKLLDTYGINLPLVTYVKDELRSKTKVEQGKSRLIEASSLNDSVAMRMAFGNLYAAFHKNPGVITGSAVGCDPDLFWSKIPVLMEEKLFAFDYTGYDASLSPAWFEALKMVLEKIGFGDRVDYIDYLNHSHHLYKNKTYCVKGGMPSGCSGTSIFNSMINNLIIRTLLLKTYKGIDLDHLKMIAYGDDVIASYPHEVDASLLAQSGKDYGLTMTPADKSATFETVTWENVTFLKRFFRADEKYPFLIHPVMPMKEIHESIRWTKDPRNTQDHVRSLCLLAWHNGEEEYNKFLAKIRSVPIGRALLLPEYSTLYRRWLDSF
Experiment: poliovirus RdRp elongation inhibitors, primary screen, biochemical, fluorescence polarization, total intensity (AID 588519)
Settings: poliovirus polymerase elongation, measured here: total intensity read-out, stronger effect = lower value, compound at 16.7 µg/mL
About 1,000 (0.67%) of roughly 150,000 compounds were called active. Many of the other results were omitted from the sample, so actives are more common in it than they were.
Below, each entry is listed alongside its reported % elongation.
Lab book: enter the figure in %, no units written.

COc1cccc(CN2CCc3nc(SCC(=O)Nc4ccccc4)[nH]c(=O)c3C2)c1 :: 111
CCC(C)NC(=O)C1c2ccccc2C(=O)N1Cc1ccccc1 (stereo not given) :: 102
CCNC(=O)N1c2ccccc2Sc2ccccc21 :: 103
COCCNC(=O)N1c2ccccc2Sc2ccccc21 :: 100
O=c1c(C=Nc2cc(Cl)ccc2O)c(O)n(C2CCCCC2)c(=O)n1C1CCCCC1 :: 100

Query: % elongation; subject: CN1/C(=C/C(=S)C(C)(C)C)Sc2ccccc21
83

Query: % elongation; subject: Cc1sc2nc(COC(=O)C(NC(=O)c3ccco3)C(C)C)[nH]c(=O)c2c1C (stereo not given)
219

Query: % elongation; subject: CCOC(=O)C1(C2(O)C(=O)c3ccccc3C2=O)CCCC1=O (stereo not given)
72

Query: % elongation; subject: COC1CC(O[C@@H]2[C@H](C)[C@H](OC3OC(C)CC(N(C)C)C3OC(C)=O)[C@H](C)CC3(CO3)C(=O)[C@@H](C)C(OC(C)=O)[C@H](C)[C@H](C)OC(=O)[C@@H]2C)OC(C)C1OC(C)=O (stereo not given in full)
103

Query: % elongation; subject: O=C(CSc1nc2c(c(=O)[nH]1)CN(Cc1ccc3c(c1)OCO3)CC2)Nc1cc(F)ccc1F
107

====

Biological target: Genome polyprotein (Poliovirus type 1 (strain Mahoney)) (UniProt P03300)
Assay: poliovirus RdRp elongation inhibitors, primary screen, biochemical, fluorescence polarization, total intensity (AID 588519)
Conditions: poliovirus polymerase elongation, measured here: total intensity read-out, stronger effect = lower value, compound at 16.7 µg/mL
The whole screen tested about 150,000 compounds, of which about 1,000 (0.67%) were called active. Many of the other results were omitted from the sample, so actives are more common in it than they were.
property label: % elongation (%)
Lab book: enter the figure in %, no units written.

Known % elongation results, listed for orientation:
Cc1cccc(OCCCC(=O)Nc2sc3c(c2C(N)=O)CCC(C)C3)c1 (configuration not stated) :: 102
COC(=O)c1cc(-c2cccs2)nc2ccccc12 :: 101
NCC1OC(OC2C(N)CC(N)C(O)C2O[C@@H]2O[C@H](CO)[C@H](O)C2O)C(N)C(O)C1O (some centres not stated) :: 103
CCOC(=O)c1c(C)c(-c2ccccc2)n(CC(=O)N2CCN(c3ccccn3)CC2)c1C :: 104

Query: % elongation; subject: O=C(CSc1nnc(-c2ccncc2)n1-c1ccccc1)Nc1ccccc1
96

Query: % elongation; subject: CCC(Cc1ccccc1)NC(=O)c1ccco1 (configuration not stated)
100

Query: % elongation; subject: COC(=O)c1c(NC(=O)C(C)Oc2ccc(Cl)c(C)c2)sc(C)c1C (configuration not stated)
106

Query: % elongation; subject: CCOc1ccc(NC(=O)c2c(NC(=O)Cc3ccccc3)sc3c2CCC(C)C3)cc1 (configuration not stated)
84

Query: % elongation; subject: CCC1CN2CCC34c5ccccc5NC3C(C)C1CC24 (configuration not stated)
104

Query: % elongation; subject: COC(=O)C(Cc1ccccc1)NC(=O)c1n[nH]c(=O)c2ccccc12 (configuration not stated)
100

Query: % elongation; subject: Nn1c(SCC(=O)Nc2ccc(S(=O)(=O)N3CCCC3)cc2)nnc1-c1ccccc1
80

Query: % elongation; subject: Cc1ccc(-n2cc[nH]c(=O)c2=O)cc1
102

Query: % elongation; subject: CCCC(=O)Nc1ccc(C(=O)CSc2nnc(Cc3ccccc3)o2)cc1
106

Query: % elongation; subject: O=C(Cc1ccccc1)Nc1sc2c(c1C(=O)Nc1ccc(Br)cc1)CCC2
106

Query: % elongation; subject: CCN(CC)C(=O)C1Sc2nnc(-c3ccccc3)n2NC1c1ccccc1 (configuration not stated)
102

Query: % elongation; subject: Cc1ccc(Cn2nc(C)c(/C=C/C(=O)OCc3nc4ccccc4c(=O)n3CC#N)c2C)cc1
119

Query: % elongation; subject: CCOc1ccc(NC(=O)c2c(NCc3cccc(OC)c3OC)sc3c2CCC3)cc1
114

Query: % elongation; subject: CCOc1ccc(OCC(=O)OC(C)C(=O)Nc2ncc(Cl)cc2Cl)cc1 (configuration not stated)
97

Query: % elongation; subject: CCOC(=O)c1c(NC(=O)COc2cc(C)ccc2C(C)C)sc(C)c1C
88

Query: % elongation; subject: CCN(CC(=O)Nc1ccc(S(=O)(=O)N2CCCC2)cc1)CC(=O)Nc1cccc(OC)c1
88

Query: % elongation; subject: Clc1nc2ccccc2c(N2CCCCC2)c1CNC1CC1
105

Query: % elongation; subject: CCC(=O)c1ccc(OCC(=O)NC2CCCCC2C)cc1 (configuration not stated)
93
